Can you tell me protein stability index for the items I'm about to list?
B1: SNAP91 (parent)
chain: FSTDAFSSPPQGASPVPESSLTAD

Variants of: B1
Assay: protein stability index of a GFP-peptide fusion (GPS, HEK-293T) (PSI 1-6); higher = more stable;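 note: lentivirally expressed fusions sorted by FACS into six bins by GFP to DsRed ratio, PSI derived from sequencing read proportions per bin multiplied by bin number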
Conditions: c terminus: a fixed tail appended

Prompt line: Output measured protein stability index for this item: "G12M"
Response line: 2.58

Prompt line: Respond only with protein stability index recorded for "S2Q"
Response line: 2.58

Prompt line: Name the recorded protein stability index of the variant listed here: "A23C"
Response line: 2.23

Prompt line: Hello, please tell me recorded protein stability index for this one: "E18N"
Response line: 2.61

Prompt line: Specify measured protein stability index for "T22M" .
Response line: 3.31

Prompt line: Supply measured protein stability index of "A5F" in your reply.
Response line: 2.03

Prompt line: Return reported protein stability index. Input variant: "S8I"
Response line: 2.62

Prompt line: Return protein stability index for the following variant: "F6E"
Response line: 5.69

Prompt line: Quote protein stability index reported for "V16K" please.
Response line: 2.96

Prompt line: Quick one: give measured protein stability index for "F6Y"
Response line: 3.26

Prompt line: Give recorded protein stability index. "P9H"
Response line: 2.89

Prompt line: // Input: "S20T" . Output its protein stability index only.
Response line: 3.47

Prompt line: Provide protein stability index value for the following variant: "L21S"
Response line: 3.58

Prompt line: Read off the recorded protein stability index for "F1K"
Response line: 5.34

Prompt line: Identify measured protein stability index associated with "T3G"
Response line: 4.47

Prompt line: Note down protein stability index recorded for "A23W"
Response line: 2.65

Prompt line: Fill in protein stability index for record "S20Q"
Response line: 3.04

Prompt line: Specify measured protein stability index for "S8K" .
Response line: 2.38

Prompt line: Answer with reported protein stability index of "P10I"
Response line: 2.42

Prompt line: Give the value of protein stability index reported for the following: "L21F"
Response line: 3.1

Prompt line: Item "S2M" : provide protein stability index
Response line: 3.32

Prompt line: Please report protein stability index for the following variant: "S20A"
Response line: 3.56
